Value source: ChEMBL document CHEMBL1127437

# TESTED SYSTEM: Acetylcholinesterase (Homo sapiens, UniProt P22303)
# Sequence (P22303 whole entry): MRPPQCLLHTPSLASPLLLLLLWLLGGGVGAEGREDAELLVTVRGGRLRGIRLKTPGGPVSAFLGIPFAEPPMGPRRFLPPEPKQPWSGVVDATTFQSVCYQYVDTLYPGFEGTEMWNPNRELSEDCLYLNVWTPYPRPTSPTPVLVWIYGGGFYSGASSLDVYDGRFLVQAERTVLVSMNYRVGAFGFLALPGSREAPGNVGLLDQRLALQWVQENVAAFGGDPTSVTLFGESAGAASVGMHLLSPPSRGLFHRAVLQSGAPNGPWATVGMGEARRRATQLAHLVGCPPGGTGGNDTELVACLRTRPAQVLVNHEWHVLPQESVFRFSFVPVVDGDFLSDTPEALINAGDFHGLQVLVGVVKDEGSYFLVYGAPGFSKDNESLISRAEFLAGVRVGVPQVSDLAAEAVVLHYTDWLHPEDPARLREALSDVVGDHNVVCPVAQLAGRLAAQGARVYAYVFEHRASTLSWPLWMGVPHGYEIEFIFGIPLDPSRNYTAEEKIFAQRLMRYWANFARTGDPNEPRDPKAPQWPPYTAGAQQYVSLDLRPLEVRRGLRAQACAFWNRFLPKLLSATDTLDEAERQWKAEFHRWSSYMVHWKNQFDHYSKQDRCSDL
pIC50: −log10 of the molar value.

SMILES NOTATION | pIC50
N#Cc1ccc2c(CCC3CCN(Cc4ccccc4)CC3)noc2c1 | 7.00
Cc1ccc2onc(CCC3CCN(Cc4ccccc4)CC3)c2c1 | 8.11
c1ccc(CN2CCC(CCc3ncnc4ccccc34)CC2)cc1 | 6.47
O=S(=O)(Nc1ccc2c(CCC3CCN(Cc4ccccc4)CC3)noc2c1)c1ccccc1 | 7.85
CC(=O)Nc1ccc2c(CCC3CCN(Cc4ccccc4)CC3)noc2c1 | 8.55
Cc1cc2onc(CCC3CCN(Cc4ccccc4)CC3)c2cc1C | 8.24
Brc1ccc2c(CCC3CCN(Cc4ccccc4)CC3)noc2c1 | 7.30
